# Test system: RPMI-8226
# Experiment description: Anticancer activity against human RPMI8226 cells after 48 hrs
# Format: functional
# Conditions used: RPMI-8226, 48 h
Parameter: TGI (µM)
Please give a number only; it is taken to be in µM.

Response field TGI (RPMI-8226) for item COc1ccc(C2CC(c3cc(Cl)c(C)cc3O)=NN2c2ccc(S(N)(=O)=O)cc2)cc1OC (centres undefined) : 100

Response field TGI (RPMI-8226) for item Cc1cc(O)c(C2=NN(c3ccc(S(N)(=O)=O)cc3)C(/C=C/c3ccccc3)C2)cc1Cl (centres undefined) : 20.6

Response field TGI (RPMI-8226) for item Cc1cc(O)c(C2=NN(c3ccc(S(N)(=O)=O)cc3)C(c3ccccc3O)C2)cc1Cl (centres undefined) : 15

Response field TGI (RPMI-8226) for item Cc1cc(O)c(C2=NN(c3ccc(S(N)(=O)=O)cc3)C(c3ccccc3Cl)C2)cc1Cl (centres undefined) : 8.35

---

# Tested on: NCI-H522
# Experiment description: Anticancer activity against human NCI-H522 cells after 48 hrs
# Format: functional
# Conditions used: NCI-H522, 48 h
Parameter: LC50 (concentration killing 50% of initial cells) (µM)
Please give a number only; it is taken to be in µM.

// LC50 (concentration killing 50% of initial cells) lookup, molecule = Cc1cc(O)c(C2=NN(c3ccc(S(N)(=O)=O)cc3)C(c3ccccc3Cl)C2)cc1Cl (centres undefined) , result: 8.33

// LC50 (concentration killing 50% of initial cells) lookup, molecule = Cc1cc(O)c(C2=NN(c3ccc(S(N)(=O)=O)cc3)C(c3ccccc3O)C2)cc1Cl (centres undefined) , result: 28

// LC50 (concentration killing 50% of initial cells) lookup, molecule = COc1ccc(C2CC(c3cc(Cl)c(C)cc3O)=NN2c2ccc(S(N)(=O)=O)cc2)cc1OC (centres undefined) , result: 69.3

// LC50 (concentration killing 50% of initial cells) lookup, molecule = Cc1cc(O)c(C2=NN(c3ccc(S(N)(=O)=O)cc3)C(/C=C/c3ccccc3)C2)cc1Cl (centres undefined) , result: 61.8

---

# Test system: RXF 393
# Experiment description: Anticancer activity against human RXF393 cells after 48 hrs
# Type: functional
# Conditions used: RXF 393, 48 h
Parameter: GI50
Remember to quote the unit after the number.

// GI50 lookup, compound = COc1ccc(C2CC(c3cc(Cl)c(C)cc3O)=NN2c2ccc(S(N)(=O)=O)cc2)cc1OC (centres undefined) , result: 2.88 µM

// GI50 lookup, compound = Cc1cc(O)c(C2=NN(c3ccc(S(N)(=O)=O)cc3)C(c3ccccc3O)C2)cc1Cl (centres undefined) , result: 3.65 µM

// GI50 lookup, compound = Cc1cc(O)c(C2=NN(c3ccc(S(N)(=O)=O)cc3)C(/C=C/c3ccccc3)C2)cc1Cl (centres undefined) , result: 6.69 µM

// GI50 lookup, compound = Cc1cc(O)c(C2=NN(c3ccc(S(N)(=O)=O)cc3)C(c3ccccc3Cl)C2)cc1Cl (centres undefined) , result: 3.09 µM

---

Task for the reader: assign each of the following compounds its reported GI50.
# Test system: LOX IMVI
# Experiment description: Anticancer activity against human LOXIMVI cells after 48 hrs
# Format: functional
Please give a number only; it is taken to be in nM.

// GI50 lookup, compound = Cc1cc(O)c(C2=NN(c3ccc(S(N)(=O)=O)cc3)C(c3ccccc3Cl)C2)cc1Cl (centres undefined) , result: 1780

// GI50 lookup, compound = Cc1cc(O)c(C2=NN(c3ccc(S(N)(=O)=O)cc3)C(/C=C/c3ccccc3)C2)cc1Cl (centres undefined) , result: 3940

// GI50 lookup, compound = COc1ccc(C2CC(c3cc(Cl)c(C)cc3O)=NN2c2ccc(S(N)(=O)=O)cc2)cc1OC (centres undefined) , result: 3350

// GI50 lookup, compound = Cc1cc(O)c(C2=NN(c3ccc(S(N)(=O)=O)cc3)C(c3ccccc3O)C2)cc1Cl (centres undefined) , result: 1730

---

# System: M14
# Experiment description: Anticancer activity against human M14 cells after 48 hrs
# Format: functional
# Conditions used: M14, 48 h, read-out: LC50 (the source's name)
Task for the reader: assign each of the following compounds its reported CC50.
Please give a number only; it is taken to be in µM.

Response field CC50 (M14) for item COc1ccc(C2CC(c3cc(Cl)c(C)cc3O)=NN2c2ccc(S(N)(=O)=O)cc2)cc1OC (centres undefined) : 38.3

Response field CC50 (M14) for item Cc1cc(O)c(C2=NN(c3ccc(S(N)(=O)=O)cc3)C(c3ccccc3O)C2)cc1Cl (centres undefined) : 6.56

Response field CC50 (M14) for item Cc1cc(O)c(C2=NN(c3ccc(S(N)(=O)=O)cc3)C(c3ccccc3Cl)C2)cc1Cl (centres undefined) : 6.39

Response field CC50 (M14) for item Cc1cc(O)c(C2=NN(c3ccc(S(N)(=O)=O)cc3)C(/C=C/c3ccccc3)C2)cc1Cl (centres undefined) : 44.2

---

# System: SNB-19
# Experiment description: Anticancer activity against human SNB19 cells after 48 hrs
# Type: functional
# Conditions used: SNB-19, 48 h
Parameter: GI50 (µM)
Please give a number only; it is taken to be in µM.

// GI50 lookup, compound = Cc1cc(O)c(C2=NN(c3ccc(S(N)(=O)=O)cc3)C(c3ccccc3Cl)C2)cc1Cl (centres undefined) , result: 3.54

// GI50 lookup, compound = COc1ccc(C2CC(c3cc(Cl)c(C)cc3O)=NN2c2ccc(S(N)(=O)=O)cc2)cc1OC (centres undefined) , result: 5.53

// GI50 lookup, compound = Cc1cc(O)c(C2=NN(c3ccc(S(N)(=O)=O)cc3)C(c3ccccc3O)C2)cc1Cl (centres undefined) , result: 4.33

// GI50 lookup, compound = Cc1cc(O)c(C2=NN(c3ccc(S(N)(=O)=O)cc3)C(/C=C/c3ccccc3)C2)cc1Cl (centres undefined) , result: 7.84

---

# Tested on: U-251
# Experiment description: Anticancer activity against human U251 cells after 48 hrs
# Format: functional
# Conditions used: U-251, 48 h
Parameter: GI50

// GI50 lookup, compound = Cc1cc(O)c(C2=NN(c3ccc(S(N)(=O)=O)cc3)C(/C=C/c3ccccc3)C2)cc1Cl (centres undefined) , result: 3.79 µM

// GI50 lookup, compound = Cc1cc(O)c(C2=NN(c3ccc(S(N)(=O)=O)cc3)C(c3ccccc3Cl)C2)cc1Cl (centres undefined) , result: 2.25 µM

// GI50 lookup, compound = Cc1cc(O)c(C2=NN(c3ccc(S(N)(=O)=O)cc3)C(c3ccccc3O)C2)cc1Cl (centres undefined) , result: 2.78 µM

// GI50 lookup, compound = COc1ccc(C2CC(c3cc(Cl)c(C)cc3O)=NN2c2ccc(S(N)(=O)=O)cc2)cc1OC (centres undefined) , result: 3.71 µM

---

Task for the reader: assign each of the following molecules its reported TGI.
# System: M14
# Experiment description: Anticancer activity against human M14 cells after 48 hrs
# Format: functional
# Conditions used: M14, 48 h
Please give a number only; it is taken to be in µM.

Response field TGI (M14) for item COc1ccc(C2CC(c3cc(Cl)c(C)cc3O)=NN2c2ccc(S(N)(=O)=O)cc2)cc1OC (centres undefined) : 7.26

Response field TGI (M14) for item Cc1cc(O)c(C2=NN(c3ccc(S(N)(=O)=O)cc3)C(c3ccccc3O)C2)cc1Cl (centres undefined) : 3.4

Response field TGI (M14) for item Cc1cc(O)c(C2=NN(c3ccc(S(N)(=O)=O)cc3)C(c3ccccc3Cl)C2)cc1Cl (centres undefined) : 3.43

Response field TGI (M14) for item Cc1cc(O)c(C2=NN(c3ccc(S(N)(=O)=O)cc3)C(/C=C/c3ccccc3)C2)cc1Cl (centres undefined) : 19.3

---

# Test system: Rattus norvegicus
# Experiment description: Antiinflammatory activity in Wistar rat assessed as inhibition of carrageenan-induced hind paw edema at 20 mg/kg, po administered 30 mins before carrageenan challenge measured after 5 hrs by plethysmometer
# Assay type: functional
Task for the reader: assign each of the following molecules its reported inhibition in vivo at 20 mg/kg.
Please give a number only; it is taken to be in %.

// inhibition in vivo at 20 mg/kg lookup, molecule = Cc1cc(O)c(C2=NN(c3ccc(S(N)(=O)=O)cc3)C(c3ccccc3O)C2)cc1Cl (stereo not drawn) , result: 59.5

// inhibition in vivo at 20 mg/kg lookup, molecule = COc1cc(C)c(Cl)cc1C1=NN(c2ccc(S(N)(=O)=O)cc2)C(/C=C/c2ccccc2)C1 (stereo not drawn) , result: 52.4

// inhibition in vivo at 20 mg/kg lookup, molecule = COc1cc(C)c(Cl)cc1C1=NN(c2ccc(S(N)(=O)=O)cc2)C(c2ccc(N(C)C)cc2)C1 (stereo not drawn) , result: 95.2

// inhibition in vivo at 20 mg/kg lookup, molecule = Cc1cc(O)c(C2=NN(c3ccc(S(N)(=O)=O)cc3)C(c3ccc(Cl)cc3)C2)cc1Cl (stereo not drawn) , result: 71.4

// inhibition in vivo at 20 mg/kg lookup, molecule = COc1cc(C)c(Cl)cc1C1=NN(c2ccc(S(N)(=O)=O)cc2)C(c2cc(OC)c(OC)c(OC)c2)C1 (stereo not drawn) , result: 21.4

// inhibition in vivo at 20 mg/kg lookup, molecule = COc1ccc(C2CC(c3cc(Cl)c(C)cc3OC)=NN2c2ccc(S(N)(=O)=O)cc2)cc1OC (stereo not drawn) , result: 47.6

// inhibition in vivo at 20 mg/kg lookup, molecule = COc1cc(C)c(Cl)cc1C1=NN(c2ccc(S(N)(=O)=O)cc2)C(c2ccccc2)C1 (stereo not drawn) , result: 59.5

// inhibition in vivo at 20 mg/kg lookup, molecule = COc1ccc(C2CC(c3cc(Cl)c(C)cc3O)=NN2c2ccc(S(N)(=O)=O)cc2)cc1OC (stereo not drawn) , result: 68.3

// inhibition in vivo at 20 mg/kg lookup, molecule = Cc1cc(O)c(C2=NN(c3ccc(S(N)(=O)=O)cc3)C(c3ccccc3)C2)cc1Cl (stereo not drawn) , result: 60.3

// inhibition in vivo at 20 mg/kg lookup, molecule = Cc1cc(O)c(C2=NN(c3ccc(S(N)(=O)=O)cc3)C(c3ccccc3Cl)C2)cc1Cl (stereo not drawn) , result: 71.4

// inhibition in vivo at 20 mg/kg lookup, molecule = COc1cc(C)c(Cl)cc1C1=NN(c2ccc(S(N)(=O)=O)cc2)C(c2cccc(O)c2)C1 (stereo not drawn) , result: 16.7

// inhibition in vivo at 20 mg/kg lookup, molecule = Cc1cc(O)c(C2=NN(c3ccc(S(N)(=O)=O)cc3)C(/C=C/c3ccccc3)C2)cc1Cl (stereo not drawn) , result: 71.4

// inhibition in vivo at 20 mg/kg lookup, molecule = "Cc1ccc(-c2cc(C(F)(F)F)nn2-c2ccc(S(N)(=O)=O)cc2)cc1" , result: 85.7
